Molecular target: human TLR9 (Homo sapiens (Human), UniProt Q9NR96)
Sequence (Q9NR96 26-1032): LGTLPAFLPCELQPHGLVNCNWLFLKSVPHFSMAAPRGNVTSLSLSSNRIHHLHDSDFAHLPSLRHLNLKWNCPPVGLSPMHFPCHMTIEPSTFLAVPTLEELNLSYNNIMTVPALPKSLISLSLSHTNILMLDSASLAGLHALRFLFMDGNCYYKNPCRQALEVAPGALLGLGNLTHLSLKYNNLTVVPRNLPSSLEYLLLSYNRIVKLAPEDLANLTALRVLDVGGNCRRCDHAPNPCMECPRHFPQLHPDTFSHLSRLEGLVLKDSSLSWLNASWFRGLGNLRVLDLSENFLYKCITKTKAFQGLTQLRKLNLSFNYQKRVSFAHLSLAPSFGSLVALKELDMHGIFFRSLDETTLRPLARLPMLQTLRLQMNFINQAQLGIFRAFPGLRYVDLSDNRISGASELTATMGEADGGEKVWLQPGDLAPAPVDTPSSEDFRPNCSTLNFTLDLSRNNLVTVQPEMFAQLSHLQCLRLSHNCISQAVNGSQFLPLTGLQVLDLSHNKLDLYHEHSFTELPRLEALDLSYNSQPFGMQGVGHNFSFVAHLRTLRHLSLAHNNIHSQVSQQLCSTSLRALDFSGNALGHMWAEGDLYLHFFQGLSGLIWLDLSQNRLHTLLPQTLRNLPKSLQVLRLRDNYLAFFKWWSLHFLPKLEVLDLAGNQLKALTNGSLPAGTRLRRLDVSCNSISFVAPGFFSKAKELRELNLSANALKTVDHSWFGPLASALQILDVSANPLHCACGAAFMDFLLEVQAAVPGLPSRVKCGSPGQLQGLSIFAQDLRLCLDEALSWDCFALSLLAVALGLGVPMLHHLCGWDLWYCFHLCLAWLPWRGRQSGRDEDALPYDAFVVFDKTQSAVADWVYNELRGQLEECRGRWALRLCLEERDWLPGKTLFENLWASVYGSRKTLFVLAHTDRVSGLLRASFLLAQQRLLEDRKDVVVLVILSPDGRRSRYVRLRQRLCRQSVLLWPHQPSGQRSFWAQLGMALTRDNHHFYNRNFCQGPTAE
Test: TLR9 inhibition reporter assay (HEK-Blue cells, SEAP reporter, ODN2006 stimulation);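 also: compounds tested over 0.05 nM to 50 µM, 22 h incubation, inhibition taken as SEAP signal drop from agonist plus DMSO wells toward a known inhibitor control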
Conditions: TLR9 IC50, HEK-Blue cells overexpressing human TLR9, ODN2006 5 nM
Measured quantity: IC50 (nM)

- Molecule: "CCc1c(-c2ccnc(C)c2)[nH]c2ccc(C3CCN(C(=O)[C@@H]4CCCCN4)CC3)cc12"
  Experimental value: 363
- Molecule: "Cc1cc(-c2[nH]c3ccc(C4CCNCC4(F)F)cc3c2C(C)C)cc(C)n1 (single isomer, unassigned) [Example 489B]"
  Experimental value: 1010
- Molecule: "CNCC(=O)N1CCC(c2ccc3[nH]c(-c4cc(C)ncc4C)c(C(C)C)c3c2)CC1"
  Experimental value: 3570
- Molecule: "Cc1cc(-c2[nH]c3ccc(C4CCN(CC(=O)N(C)C(C)C)CC4)cc3c2C(C)C)cc(C)n1"
  Experimental value: 990
- Molecule: "Cc1cc(-c2[nH]c3ccc(C4CCN(Cc5cccnc5)CC4)cc3c2C(C)C)cc(C)n1"
  Experimental value: 234
- Molecule: "CCc1c(-c2ccnc(C)c2)[nH]c2ccc(C3CCN(C(=O)[C@@H]4CCCN4)CC3)cc12"
  Experimental value: 482
- Molecule: "CNCCC(=O)N1CCC(c2ccc3[nH]c(-c4cc(C)nc(C)c4)c(C(C)C)c3c2)CC1"
  Experimental value: 323
- Molecule: "Cc1cc(-c2[nH]c3ccc(C4CCN(C(=O)CNCCC(C)C)CC4)cc3c2C(C)C)cc(C)n1"
  Experimental value: 800

====

Molecular target: UniProt Q9NR97
Sequence (Q9NR97 27-1041): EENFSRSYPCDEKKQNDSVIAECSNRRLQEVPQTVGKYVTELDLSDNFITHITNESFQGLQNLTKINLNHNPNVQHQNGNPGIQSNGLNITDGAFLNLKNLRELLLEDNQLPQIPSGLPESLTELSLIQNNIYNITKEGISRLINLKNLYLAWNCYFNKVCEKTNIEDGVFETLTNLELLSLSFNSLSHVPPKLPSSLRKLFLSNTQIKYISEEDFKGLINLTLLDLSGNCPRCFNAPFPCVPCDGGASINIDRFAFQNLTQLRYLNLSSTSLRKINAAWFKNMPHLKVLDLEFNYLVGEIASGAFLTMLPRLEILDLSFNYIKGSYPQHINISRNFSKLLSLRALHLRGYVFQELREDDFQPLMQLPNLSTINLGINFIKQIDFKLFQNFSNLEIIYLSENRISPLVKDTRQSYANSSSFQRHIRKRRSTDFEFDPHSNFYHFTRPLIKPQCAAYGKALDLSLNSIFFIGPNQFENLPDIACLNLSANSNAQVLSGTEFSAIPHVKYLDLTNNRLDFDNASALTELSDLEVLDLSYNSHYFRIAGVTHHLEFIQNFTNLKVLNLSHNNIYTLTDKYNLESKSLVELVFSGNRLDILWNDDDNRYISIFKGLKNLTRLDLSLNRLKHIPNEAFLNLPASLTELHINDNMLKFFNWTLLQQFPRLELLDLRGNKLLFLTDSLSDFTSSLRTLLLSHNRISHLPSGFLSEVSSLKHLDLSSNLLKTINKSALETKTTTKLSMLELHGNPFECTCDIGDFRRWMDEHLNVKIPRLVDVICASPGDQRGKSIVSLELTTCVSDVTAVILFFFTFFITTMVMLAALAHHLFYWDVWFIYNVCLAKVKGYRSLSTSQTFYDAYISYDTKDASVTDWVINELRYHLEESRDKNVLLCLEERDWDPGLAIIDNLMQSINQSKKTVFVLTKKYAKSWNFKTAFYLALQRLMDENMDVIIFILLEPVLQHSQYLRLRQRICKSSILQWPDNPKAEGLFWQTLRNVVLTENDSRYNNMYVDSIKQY
Assay: TLR8 inhibition reporter assay (HEK-Blue cells, SEAP reporter, R848 stimulation);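 also: compounds tested from 0.05 nM to 50 µM, 22 h at 37 °C, SEAP measured with HEK-Blue Detection, inhibition relative to agonist plus DMSO versus a known inhibitor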
Settings: read-out: TLR8 IC50, HEK-Blue cells overexpressing human TLR8, R848 15.9 μM
pIC50: −log10 of the molar value.

- Smiles code: "CCc1c(-c2ccnc(OCCN(C)C)c2)[nH]c2ccc(C3CCN(C4CCN(CC(C)C)CC4)CC3)cc12"
  Limit qualifier: "<"
  pIC50: 4.30
- Smiles code: "Cc1cc(-c2[nH]c3ccc(C4CCN(C(=O)CNC5CCOCC5)CC4)cc3c2C(C)C)cc(C)n1"
  Limit qualifier: "="
  pIC50: 7.75
- Smiles code: "Cc1cc(-c2[nH]c3ccc(C4CCN(C(=O)C5(C)CCN(C(C)C)CC5)CC4)cc3c2C(C)C)cc(C)n1"
  Limit qualifier: "="
  pIC50: 7.17
- Smiles code: "CC(C)c1c(-c2cc(C3CC3)ncc2F)[nH]c2ccc(C3CCN(CC(=O)N(C)C)CC3)cc12"
  Limit qualifier: "="
  pIC50: 6.87

====

Molecular target: human TLR9 (Homo sapiens (Human))
Assay: TLR9 inhibition reporter assay (HEK-Blue cells, SEAP reporter, ODN2006 stimulation)
Settings: read-out: TLR9 IC50, HEK-Blue cells overexpressing human TLR9, ODN2006 5 nM
pIC50: −log10 of the molar value.

- Compound: "Cc1cc(-c2[nH]c3ccc(C4CCN(C(=O)CN5CC[C@H](O)C5)CC4)cc3c2C(C)C)cc(C)n1 [Example 380]"
  Target or system: "human TLR9 (Homo sapiens (Human))"
  Limit qualifier: "="
  pIC50: 6.45
- Compound: "Cc1nccc(-c2[nH]c3ccc(C4CCN(C(=O)C5CC(=O)N(C)C5)CC4)cc3c2C(C)C)c1F (stereo not shown) [Example 582]"
  Target or system: "human TLR9 (Homo sapiens (Human))"
  Limit qualifier: "<"
  pIC50: 4.30
- Compound: "Cc1cc(-c2[nH]c3ccc(C4CCN(C(=O)CN(C)Cc5ncn(C)n5)CC4)cc3c2C(C)C)cc(C)n1 [Example 419]"
  Target or system: "human TLR9 (Homo sapiens (Human))"
  Limit qualifier: "="
  pIC50: 4.34
- Compound: "Cc1cc(-c2[nH]c3ccc(C4CCN(C(=O)c5c(C)n[nH]c5C)CC4)cc3c2C(C)C)cc(C)n1 [Example 121]"
  Target or system: "human TLR9 (Homo sapiens (Human))"
  Limit qualifier: "="
  pIC50: 4.97
- Compound: "Cc1cc(-c2[nH]c3ccc(C4CCN(C(=O)C(C)(C)C#N)CC4)cc3c2C(C)C)ccn1 [Example 615]"
  Target or system: "human TLR9 (Homo sapiens (Human))"
  Limit qualifier: "="
  pIC50: 4.91
- Compound: "Cc1cc(-c2[nH]c3cc(F)c(C4CCNCC4)cc3c2C(C)C)ccn1 [Example 73]"
  Target or system: "human TLR9 (Homo sapiens (Human))"
  Limit qualifier: "="
  pIC50: 5.33
- Compound: "CCc1c(-c2ccnc(NC)c2)[nH]c2ccc(C3CCN(C4CCN(CC(C)C)CC4)CC3)cc12 [Example 771]"
  Target or system: "human TLR9 (Homo sapiens (Human))"
  Limit qualifier: "="
  pIC50: 6.77
- Compound: "CCc1c(-c2ccncc2)[nH]c2ccc(C3CCN(C4CCN(C(C)C)CC4)CC3)cc12 [Example 804]"
  Target or system: "human TLR9 (Homo sapiens (Human))"
  Limit qualifier: "="
  pIC50: 7.09
- Compound: "Cc1cc(-c2[nH]c3ccc(C4CCN(CC(=O)N5CCC(O)CC5)CC4)cc3c2C(C)C)cc(C)n1 [Example 230]"
  Target or system: "human TLR9 (Homo sapiens (Human))"
  Limit qualifier: "="
  pIC50: 7.13
- Compound: "Cc1cc(-c2[nH]c3ccc(C4CCN(C5COC5)CC4)cc3c2C(C)C)c(F)c(C)n1 [Example 729]"
  Target or system: "human TLR9 (Homo sapiens (Human))"
  Limit qualifier: "="
  pIC50: 5.44
- Compound: "Cc1cc(-c2[nH]c3ccc(C4CCNCC4)cc3c2C(C)C)c(Br)c(C)n1 [Example 40]"
  Target or system: "human TLR9 (Homo sapiens (Human))"
  Limit qualifier: "="
  pIC50: 5.83
- Compound: "CC(C)c1c(-c2ccnc(F)c2)[nH]c2ccc(C3CCN(C4CCN(C)CC4)CC3)cc12 [Example 523]"
  Target or system: "human TLR9 (Homo sapiens (Human))"
  Limit qualifier: "="
  pIC50: 6.30
- Compound: "CCN(CCO)C(=O)CN1CCC(c2ccc3[nH]c(-c4cc(C)nc(C)c4)c(C(C)C)c3c2)CC1 [Example 294]"
  Target or system: "human TLR9 (Homo sapiens (Human))"
  Limit qualifier: "="
  pIC50: 5.73
- Compound: "Cc1cc(-c2[nH]c3ccc(C4CCN(C(=O)c5cnn(C)c5)CC4)cc3c2C(C)C)cc(C)n1 [Example 132]"
  Target or system: "human TLR9 (Homo sapiens (Human))"
  Limit qualifier: "="
  pIC50: 4.33
- Compound: "CCc1c(-c2ccnc(-n3ccnc3)c2)[nH]c2ccc(C3CCNCC3)cc12 [Example 67]"
  Target or system: "human TLR9 (Homo sapiens (Human))"
  Limit qualifier: "="
  pIC50: 6.40
- Compound: "Cc1cc(-c2[nH]c3ccc(C4CCN(CCOc5ccccc5)CC4)cc3c2C(C)C)ccn1 [Example 663]"
  Target or system: "human TLR9 (Homo sapiens (Human))"
  Limit qualifier: "="
  pIC50: 5.96
- Compound: "CCS(=O)(=O)N1CCC(c2ccc3[nH]c(-c4ccnc(C)c4)c(C(C)C)c3c2)CC1 [Example 549]"
  Target or system: "human TLR9 (Homo sapiens (Human))"
  Limit qualifier: "<"
  pIC50: 4.30
- Compound: "Cc1cc(-c2[nH]c3ccc(C4CCNCC4)cc3c2C2CC2)ccn1 [Example 88]"
  Target or system: "human TLR9 (Homo sapiens (Human))"
  Limit qualifier: "="
  pIC50: 7.15
- Compound: "CCc1c(-c2ccnc(C)c2)[nH]c2ccc(C3CCN(C(=O)C4CCNCC4c4ccccc4)CC3)cc12 (stereo not shown) [Example 627]"
  Target or system: "human TLR9 (Homo sapiens (Human))"
  Limit qualifier: "="
  pIC50: 6.26
- Compound: "Cc1cc(-c2[nH]c3ccc(C4CCN(C(=O)CN(C)C)CC4)cc3c2C(C)C)cc(F)n1 [Example 501]"
  Target or system: "human TLR9 (Homo sapiens (Human))"
  Limit qualifier: "="
  pIC50: 6.00
- Compound: "Cc1cc(-c2[nH]c3ccc(C4CCN(C5COC5)CC4)cc3c2C(C)C)c(C)cn1 [Example 722]"
  Target or system: "human TLR9 (Homo sapiens (Human))"
  Limit qualifier: "="
  pIC50: 5.23
- Compound: "CNC(=O)CN1CCC(c2ccc3[nH]c(-c4cc(C)nc(C)c4)c(CC(F)F)c3c2)CC1 [Example 532]"
  Target or system: "human TLR9 (Homo sapiens (Human))"
  Limit qualifier: "="
  pIC50: 6.09
- Compound: "Cc1cc(-c2[nH]c3ccc(C4CCN(C(=O)CNC5(C)CC5)CC4)cc3c2C(C)C)cc(C)n1 [Example 360]"
  Target or system: "human TLR9 (Homo sapiens (Human))"
  Limit qualifier: "="
  pIC50: 6.10
- Compound: "Cc1cc(-c2[nH]c3ccc(C4CCN(C(=O)C5(C)CCN(C)CC5)CC4)cc3c2C(C)C)cc(C)n1 [Example 176]"
  Target or system: "human TLR9 (Homo sapiens (Human))"
  Limit qualifier: "="
  pIC50: 6.18
- Compound: "CC(C)c1c(-c2ccnc(F)c2)[nH]c2ccc(C3CCN(C(=O)CN(C)C)CC3)cc12 [Example 522]"
  Target or system: "human TLR9 (Homo sapiens (Human))"
  Limit qualifier: "="
  pIC50: 5.70
- Compound: "CC(C)c1c(-c2ccnc(C#N)c2C(F)(F)F)[nH]c2ccc(C3CCNCC3)cc12 [Example 33]"
  Target or system: "human TLR9 (Homo sapiens (Human))"
  Limit qualifier: "="
  pIC50: 5.25
- Compound: "Cc1cc(-c2[nH]c3ccc(C4CCN(C(=O)C5(O)CC5)CC4)cc3c2C(C)C)cc(C)n1 [Example 107]"
  Target or system: "human TLR9 (Homo sapiens (Human))"
  Limit qualifier: "="
  pIC50: 4.87
- Compound: "Cc1cc(-c2[nH]c3ccc(C4CCN(C(=O)C5CC(=O)N(C)C5)CC4)cc3c2CC(F)F)cc(C)n1 (stereo not shown) [Example 534]"
  Target or system: "human TLR9 (Homo sapiens (Human))"
  Limit qualifier: "="
  pIC50: 4.34
- Compound: "CC(C)c1c(-c2cc(C3CC3)ncc2F)[nH]c2ccc(C3CCN(C(=O)C4CC(=O)N(C)C4)CC3)cc12 (stereo not shown) [Example 517]"
  Target or system: "human TLR9 (Homo sapiens (Human))"
  Limit qualifier: "<"
  pIC50: 4.30
- Compound: "Cc1cc(-c2[nH]c3ccc(C4CCN(C(=O)C5(C(F)(F)F)CC5)CC4)cc3c2C(C)C)ccn1 [Example 605]"
  Target or system: "human TLR9 (Homo sapiens (Human))"
  Limit qualifier: "="
  pIC50: 4.85
- Compound: "Cc1nccc(-c2[nH]c3ccc(C4CCN(CC(=O)N(C)C)CC4)cc3c2C(C)C)c1F [Example 648]"
  Target or system: "human TLR9 (Homo sapiens (Human))"
  Limit qualifier: "="
  pIC50: 5.65
